Tested on: NCI-H2228 parental
Protocol description: cell viability relative to vehicle (fraction of vehicle); higher = less growth inhibition
Condition details: 100 nM; treatment time 6 days
Where a name gives a salt, the structure may show the parent alone. The full ranking holds about 2,800 compounds; the median of “cell viability relative to vehicle” is about 1.1, and the lowest 2% start at about 0.19. The sample as a whole holds a higher share of the lowest values than the screen did.
Known cell viability of a selection of compounds
A bare number is all that is needed in reply.

Cn1cc(C[C@@H](N)C(=O)O)c2ccccc21 = 1.11
COc1ccc2c(c1)C(c1ccc(F)cc1)=C(CN1CCCC1)CO2 = 1.1
COc1ccc(C[C@H](NC(=O)[C@H](C)NC(=O)CN2CCOCC2)C(=O)N[C@@H](Cc2ccccc2)C(=O)C2(C)CO2)cc1 (stereo in doubt) = 0.878
CC(C)C[C@H](NC(=O)[C@H](CCc1ccccc1)NC(=O)CN1CCOCC1)C(=O)N[C@@H](Cc1ccccc1)C(=O)N[C@@H](CC(C)C)C(=O)[C@@]1(C)CO1 = 0.0349
CN1CCc2c(c3ccccc3n2Cc2ccc(C(=O)NO)cc2)C1 [Tubastatin A HCl] = 1.02
Cn1cc(CNCC2CCN(c3ncc(C(=O)NO)cn3)CC2)c2ccccc21 = 0.159
N#CC(=Cc1cc(Cl)cc(Cl)c1)c1cccnc1 = 1.14

Which cell viability value is on record for CC(NC(=O)C(Cc1ccccc1)NC(=O)OCc1ccccc1)C(=O)CF (stereo not drawn) ?
1.1

* * *

Tested on: NCI-H2228 parental
Protocol description: cell viability relative to vehicle (fraction of vehicle); higher = less growth inhibition
Condition details: 100 nM; treatment time 6 days
In all, about 2,800 compounds were measured (“cell viability relative to vehicle”: median about 1.1, lowest 2% from about 0.19 on). Shown is part of a subset that was picked to be rich in the lowest values.
Measured metric: cell viability

Observe how each entry below is paired with its result.
Nc1ccn([C@@H]2O[C@H](CO)[C@@H](O)[C@H]2O)c(=O)n1 = 0.915
S=C(N/N=C1/CCCc2cccnc21)N1CCN(c2ccccn2)CC1 = 1.09
CC1=C[C@]2(O)O[C@@]3(CC2=C(C)C)[C@@H](C)CC[C@@H]13 = 1.1
COc1ccc(-c2ccc3ncc4c(c3c2)n(-c2ccc(N3CCNCC3)c(C(F)(F)F)c2)c(=O)n4C)cn1 = 0.172
CC1(C)CC[C@]2(C(=O)O)CC[C@]3(C)C(=CC[C@@H]4[C@@]5(C)CC[C@H](O[C@@H]6O[C@H](C(=O)O)[C@@H](O)[C@H](O[C@@H]7OC[C@@H](O)[C@H](O)[C@H]7O)[C@H]6O)C(C)(C)[C@@H]5CC[C@]43C)[C@@H]2C1 = 1.1
CCc1cnn2c(NCc3ccc[n+]([O-])c3)cc(N3CCCC[C@H]3CCO)nc12 = 0.118
CN(C)C(=S)NN=C(c1ccccn1)c1ccccn1 = 0.212
CC(=O)Nc1ccn([C@@H]2O[C@H](CO)[C@@H](O)[C@H]2O)c(=O)n1 = 1.06

Which cell viability value is on record for COc1cc(/C=C2/SC(=S)NC2=O)ccc1OCC(=O)O ?
1.1

Which cell viability value is on record for CC(C)c1cc2c(c(O)c1O)[C@@]13CCCC(C)(C)[C@@H]1C[C@@H]2OC3=O ?
1.04

Which cell viability value is on record for COc1cc(N(C)C)cc(CN(C)CCc2ccc([N+](=O)[O-])cc2)c1O ?
1.05

Which cell viability value is on record for Cc1ccc([N+](=O)[O-])cc1S(=O)(=O)N(C)/N=C/c1cnc2ccc(Br)cn12 ?
0.165

* * *

Test system: NCI-H2228 parental
Protocol description: cell viability relative to vehicle (fraction of vehicle); NCI-H2228 is an ALK-positive lung cancer line and DTP means drug-tolerant persister; higher = less growth inhibition
Condition details: 100 nM; treatment time 6 days
Counter-ions that a name gives are not always drawn. The full ranking holds about 2,800 compounds; the median of “cell viability relative to vehicle” is about 1.1, and the lowest 2% start at about 0.19. Shown is part of a subset that was picked to be rich in the lowest values.
Note to self: cell viability under 1 means 1.0, ties and anything higher get 0.0.

NCCC(=O)O = 0.0
COc1ccc(CNc2nc(N3CCC[C@H]3CO)ncc2C(=O)NCc2ncccn2)cc1Cl = 1.0
C=C[C@H]1[C@H](O[C@@H]2O[C@H](CO)[C@@H](O)[C@H](O)[C@H]2O)OC=C2C(=O)OCC[C@]21O = 0.0
Nc1ccn([C@@H]2O[C@H](CO)[C@@H](O)C2(F)F)c(=O)n1 [Gemcitabine HCl] = 1.0
Nc1nc2[nH]cc(CCc3ccc(C(=O)N[C@@H](CCC(=O)O)C(=O)O)cc3)c2c(=O)[nH]1 [Pemetrexed Disodium Hydrate] = 1.0
Cn1c(=O)n(-c2ccc(C(C)(C)C#N)cc2)c2c3cc(-c4cnc5ccccc5c4)ccc3ncc21 = 1.0
CCCCc1nc2ccc(NC(=O)NC3CCCCC3)cc2n1Cc1ccc(-c2ccccc2C(=O)O)cc1 = 0.0
Nc1ccn([C@H]2C[C@H](O)[C@@H](CO)O2)c(=O)n1 [2'-Deoxycytidine monohydrate] = 0.0
Nc1ccn([C@@H]2O[C@H](CO)[C@@H](O)C2(F)F)c(=O)n1 [Gemcitabine] = 1.0
Cc1ccc([N+](=O)[O-])cc1S(=O)(=O)N(C)/N=C/c1cnc2ccc(Br)cn12 [PIK-75 hydrochloride] = 1.0

Dear colleague, could you confirm whether cell viability of Nc1ccn([C@@H]2CS[C@H](CO)O2)c(=O)n1 falls below 1? Thanks.
0.0

Dear colleague, could you confirm whether cell viability of C/C(=N\NC(=S)N1CCC1)c1ccccn1 falls below 1? Thanks.
1.0

Dear colleague, could you confirm whether cell viability of CC(C)=CCC[C@](C)(O[C@@H]1O[C@H](CO)[C@@H](O)[C@H](O)[C@H]1O)[C@H]1CC[C@]2(C)[C@@H]1[C@H](O)C[C@@H]1[C@@]3(C)CC[C@H](O)C(C)(C)[C@@H]3[C@@H](O)C[C@]12C [Ginsenoside F1] falls below 1? Thanks.
0.0
